B1: TPR t1 (parent)
chain: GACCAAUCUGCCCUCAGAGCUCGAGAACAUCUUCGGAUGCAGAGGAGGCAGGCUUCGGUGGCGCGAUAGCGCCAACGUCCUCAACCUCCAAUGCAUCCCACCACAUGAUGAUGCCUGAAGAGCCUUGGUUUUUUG

variants of: B1; assay: polymerase ribozyme fitness, log enrichment relative to wild type (log ratio); higher = more active; in vitro selection for triplet polymerase activity
Form field: polymerase ribozyme fitness (log ratio) (one value per entry).
property_measured: polymerase ribozyme fitness (log ratio)

* A26C G39C C104U U106A G120A | -5.96
* U32C C62U C73U C85U C98U | -4.16
* C64U A95G G117C | -4.22
* A50C C115A U132C | -0.367
* C80U C101U A118G A121U U131A | 0.732
* C89G A111G G113C | -3.54
* G61A C102U | -1.04
* U78C U125A | -0.432
* G36A G42C C76G | -2.73
* C15A U78A | -2.6
* G45C G51U G57U C99A G117C | -7.29
* C20G A50C C80U G93A G120C U125G | -6.66
* U54A U92G | -2.06
* A41G G48A | -1.31
* C53G G57A A66G C70A G113U | -7.08
* A5C U7G U54A G110C | -4.81
* C56A C97U G113U | -4.2
* U9A C64U G117A | 0.77
* C13G C53G C115A | -1.47
* G61A C88U A100U G120A | -0.447
* A50G C99U G110C | -7.74
* A111C G122A | -0.308
* C98U U106G U133G | -2.9
* A6U C53G C124U U129A | -0.73
* A37G U81G A84C | -5.14
* G36U A46C A50U A84U | -5.6
* A24U U38A C72U C80G C99U | -7.56
* C20G U32G C80A C99A C124G | -5.93
* A27U C123G | -0.165
* C20A C73U | -2.08
* C20G A43G G48A C72G U106A C123A U129A | -6.54
* C8U U21A U30C C56U | -3.2
* C53G G63A A95G G110A U125C | -4.78
* A5C C40A C64U C89U C102U U106A | -7.21
* C12A U14G | -1.01
* G60U C85A A103U A111C | -4.74
* U59C C72U G117A | -1.45
* A5C G63C C94A G113C G122U | -4.6
* G48U C49U C72A C73A U131C | -2.61
* C13U G63A C64U | -4.34
* C12G G17U G57C C62A C115G U129C U132C | -3.27
* C79U G122U | 0.0245
* C62U U81G A83U C89U G117U | -5.98
* C3U C12A | -0.942
* G69C C80U | -2.38
* C28U G61A U112C U131A | 0.223

Cited source: the RNAGym collection of RNA variant scans (doi:10.1073/pnas.2313332121)
